# Study system: Tubulin
# Test protocol: Inhibition of tubulin polymerization (unknown origin) incubated for 15 mins followed by GTP addition and measured for 20 mins by spectrophotometry
Outcome measure: IC50
Write the figure, then the unit, nothing else.

Q) Can you look up the measured IC50 of O=c1c2cc(Cl)ccc2nc(/C=C/c2ccccc2)n1-c1ncccn1 for me?
A) 5.98 µM

###

# Test protocol: Therapeutic index, ratio of IC50 for antiviral activity against HIV infected in human H9 cells to EC50 for antiviral activity against HIV infected in human H9 cells
# Type: toxicity, cell-based
# Assay conditions: human immunodeficiency virus, H9 cells infected with HIV; read-out: Ratio IC50/EC50
Outcome measure: selectivity ratio
Answer as a number with no unit attached.

Q) Data request, read-out selectivity ratio, for COc1cc2nc(-c3ccc4ccccc4c3)nc(O)c2cc1OC
A) 13.2

Lab note: next molecule to report on.
Q) Requested field: selectivity ratio. Item: COc1cc2nc(-c3ccccc3F)nc(O)c2cc1OC
A) 9.17
